Source: the OligoGym collection

# MEASURED_TARGET: HIF1A
# PROCEDURE_SUMMARY: HeLa, 100 nM transfected, 24 h, mean of 3
# SETTINGS: ASO
Bases are written 5' to 3'; sugars and linkages follow in the same order, as letters with counts (s phosphorothioate, o phosphodiester; PS: all linkages phosphorothioate). C may stand for cytosine or 5-methylcytosine; the collection does not tell. l = locked nucleic acid (LNA); d = 2'-deoxy (DNA)
# cutoff 300 applies to caspase activation (% of PBS control); >= gives True, < gives False

# QUERY_SEQUENCE, CLASS_NAME
records = [
    ("TGGCAAGCATCCTGTA (sugars lllddddddddldldl, PS)", "True"),
    ("TGGCAAGCATCCTGTA (sugars l2 d10 l1 d1 l2, PS)", "True"),
    ("TGGCAAGCATCCTGTA (sugars llldlddddddllldl, PS)", "True"),
    ("GTTACTGCCTTCT (sugars l2 d8 l3, PS)", "False"),
    ("GTTACTGCCTTCTTAC (sugars l3 d1 l1 d7 l4, PS)", "True"),
    ("GTTACTGCCTTCTTAC (sugars l2 d1 l2 d10 l1, PS)", "False"),
    ("GTTACTGCCTTCTTAC (sugars l2 d12 l2, PS)", "False"),
    ("TGGCAAGCATCCTGTA (sugars l5 d6 l2 d2 l1, PS)", "True"),
    ("GTTACTGCCTTCT (sugars l1 d1 l2 d7 l2, PS)", "False"),
    ("GGCAAGCATCCTG (sugars l1 d2 l1 d6 l3, PS)", "True"),
    ("GTTACTGCCTTCTTAC (sugars ldddlddddddddldl, PS)", "False"),
    ("TGGCAAGCATCCTGTA (sugars l2 d9 l3 d1 l1, PS)", "True"),
    ("TGGCAAGCATCCTGTA (sugars ldldddddddddldll, PS)", "False"),
    ("TACTGCCTTCTTA (sugars l1 d1 l2 d8 l1, PS)", "False"),
    ("TGGCAAGCATCCTGTA (sugars l1 d11 l4, PS)", "True"),
    ("ACTGCCTTCTTAC (sugars l4 d7 l2, PS)", "True"),
    ("GTTACTGCCTTCTTAC (sugars l3 d8 l1 d1 l3, PS)", "False"),
    ("TGGCAAGCATCCT (sugars l3 d7 l1 d1 l1, PS)", "False"),
    ("GTTACTGCCTTCTTAC (sugars l5 d6 l2 d1 l2, PS)", "True"),
    ("TGGCAAGCATCCTGTA (sugars l1 d10 l1 d1 l3, PS)", "True"),
    ("GTTACTGCCTTCTTAC (sugars l4 d10 l2, PS)", "False"),
    ("GTTACTGCCTTCTTAC (sugars ldddldddddddlldl, PS)", "False"),
]

====

# MEASURED_TARGET: HIF1A
# PROCEDURE_SUMMARY: HeLa, 100 nM transfected, 24 h, mean of 3
# SETTINGS: ASO
Bases are written 5' to 3'; sugars and linkages follow in the same order, as letters with counts (s phosphorothioate, o phosphodiester; PS: all linkages phosphorothioate). C may stand for cytosine or 5-methylcytosine; the collection does not tell. l = locked nucleic acid (LNA); d = 2'-deoxy (DNA)

# QUERY_SEQUENCE, caspase activation (% of PBS control)
data = [
    ("CAAGCATCCTGTA (sugars l2 d8 l3, PS)", 250),
    ("TGGCAAGCATCCTGTA (sugars l2 d1 l1 d9 l3, PS)", 520),
    ("TACTGCCTTCTTA (sugars l4 d6 l1 d1 l1, PS)", 508),
    ("GTTACTGCCTTCTTAC (sugars l1 d3 l1 d6 l5, PS)", 359),
    ("ACTGCCTTCTTAC (sugars l4 d8 l1, PS)", 387),
    ("TGGCAAGCATCCTGTA (sugars l2 d10 l1 d2 l1, PS)", 377),
]
